ASSAY OVERVIEW: chemical genetic growth profiling, strain panel (AID 1159580);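 note: tested at 20 µM; growth read once vehicle control cultures reached saturation at 30 °C; 1 = growth at the plate median or of vehicle wells; lower values mean less growth of the strain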
CONDITION PARAMETERS: S. cerevisiae deletion strains, growth OD, locus YOR001W, strain rrp6, hits give low values
About 2,000 (36%) of roughly 5,500 compounds were called active. About 18% were inconclusive and are not listed. Some of the results follow.
READOUT: normalized growth
Simply state the number, no unit and no words.

Consider the following illustrative entries.
CC(=O)OC[C@@]1(O)C[C@@]23CCC4c5ccoc5CC[C@]4(C)C2CC[C@@H]1C3 (stereo partly specified) | 0.985
CC(=O)c1ccc[nH]1 | 1
O=C1C=CC(=O)c2c(O)cccc21 | 0.966
Cn1c(=O)c2c(ncn2C)n(C)c1=O | 0.979
CCCCN(CC)c1c([N+](=O)[O-])cc(C(F)(F)F)cc1[N+](=O)[O-] | 1.03
O=C1c2cccc(O)c2C(=O)c2c(O)cccc21 | 0.855

Request: Entry Cn1c(=O)[nH]c2nc[nH]c2c1=O : reported normalized growth = ?
Response: 1.02

Request: normalized growth lookup needed for O=C1C=CC(=O)c2c(O)c(Cl)c(Cl)c(O)c21 , thanks.
Response: 0.0755

Request: What does the data say about its normalized growth? Entry: Cc1cc2nc3c(=O)[nH]c(=O)nc-3n(CC(O)C(O)C(O)CO)c2cc1C (stereo unspecified)
Response: 0.908

Request: I'd like to know its normalized growth. The compound in question is C=C[C@H]1CN2CC[C@H]1C[C@H]2[C@H](O)c1ccnc2ccccc12
Response: 0.978

Request: Return reported normalized growth; argument: COc1cc(OC)c2c(OC)c(-c3ccc4c(c3)OCO4)c(=O)oc2c1
Response: 0.991

Request: Which value of normalized growth has been reported for O=c1c(O)cccc2cc(O)c(O)c(O)c12 in the records?
Response: 0.686

Request: Item Oc1cc2c(cc1O)C(c1ccccc1)CNCC2 (stereo unspecified) has what recorded normalized growth?
Response: 0.918

Request: For the compound COC(=O)C[C@H]1C(C)(C)[C@@H](OC(C)=O)[C@@H]2CC3=C4CC(=O)O[C@@H](c5ccoc5)[C@]4(C)CCC3[C@@]1(C)C2=O (stereo partly specified) , what normalized growth is on record?
Response: 0.939

Request: I am curious: what normalized growth value has been reported for Cn1c(=O)[nH]c2ncn(C)c2c1=O ?
Response: 0.925

Request: Any idea what normalized growth was measured for COc1ccccc1OCC(O)COC(N)=O (stereo unspecified) ?
Response: 1.01
